- Experimental Protocol: chemical genetic growth profiling, strain panel (AID 1159580);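 note: tested at 20 µM; growth read once vehicle control cultures reached saturation at 30 °C; 1 = growth at the plate median or of vehicle wells; lower values mean less growth of the strain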
- Assay Conditions: S. cerevisiae deletion strains, growth OD, locus YDR195W, strain ref2
The campaign covered roughly 5,500 compounds. About 2,000 (36%) were called active. Inconclusive results (about 18%) are left out. The list shows a part of the results.
Measurement Label: normalized growth

The value of normalized growth measured for the compound CS(=O)(=O)c1ccc(C2=C(c3ccccc3)C(=O)OC2)cc1 turned out to be 0.963 (inactive)

Per the records, this compound ( COCCc1ccc(OCC(O)CNC(C)C)cc1 (centres undefined) ) has normalized growth equal to 0.998 (inactive)

Entry under test: CC1=C(C/C=C(\C)CCC[C@H](C)CCC[C@H](C)CCCC(C)C)C(=O)c2ccccc2C1=O . Its normalized growth was 0.963 (inactive)

Lab note: measured normalized growth of C=Cc1c2[nH]c(c1C)C=c1[nH]c(c(C)c1C=C)=CC1N=C(C=c3[nH]c(c(C)c3CCC(=O)O)=C2)C(CCC(=O)O)=C1C (centres undefined) was 1.03 (inactive)

Entry Oc1cc(Cl)ccc1Oc1ccc(Cl)cc1Cl , normalized growth reported as 0.117 (active)

For CCCCCCNC(=O)n1cc(F)c(=O)[nH]c1=O the compound record lists normalized growth as 0.678 (active)

normalized growth reported for this compound CC1=C(/C=C/C(C)=C/C=C/C(C)=C/C=C/C=C(C)/C=C/C=C(C)/C=C/C(=O)[C@]2(C)C[C@@H](O)CC2(C)C)C(C)(C)C[C@H](O)C1 : 0.978 (inactive)

Reported normalized growth ( COc1ccc2c(c1)OCc1c-2oc2cc(OC)ccc12 ) = 1.08 (inactive)

Field normalized growth (entry CN1CCc2cc3c(cc2[C@H]1C1OC(=O)c2c1ccc1c2OCO1)OCO3 (some centres undefined) ) reads 0.957 (inactive)

Just so you know, measured normalized growth for CCCCNc1cc(C(=O)O)cc(S(N)(=O)=O)c1Oc1ccccc1 came out at 0.983 (inactive)

Record C[N+](C)(C)CCOC(N)=O . Reported normalized growth: 1.06 (inactive)

Notebook: CN[C@@H](C)[C@@H](O)c1ccccc1 , normalized growth read as 0.977 (inactive)

For record CCC(=O)O[C@H]1[C@H](O[C@@H]2[C@@H](C)[C@H](O[C@H]3C[C@@](C)(OC)[C@@H](O)[C@H](C)O3)[C@@H](C)C(=O)O[C@H](CC)[C@@](C)(O)[C@H](O)[C@@H](C)C(=O)[C@H](C)C[C@@]2(C)O)O[C@H](C)C[C@@H]1N(C)C the listed normalized growth is 1.22 [resistant] (active)

The reported value for CC1(C)OC(=O)NC1=O in terms of normalized growth is 1.01 (inactive)

Reported normalized growth for CCOC(=O)C(Cc1ccc(O)cc1)NC(C)=O (centres undefined) was 1.01 (inactive)

The reported normalized growth of the compound CC(Oc1ccccc1)C(=O)N[C@@H]1C(=O)N2[C@@H]1SC(C)(C)[C@@H]2C(=O)O (some centres undefined) was 1 (inactive)

Given item ClC1=C(Cl)C2(Cl)C3C4C=CC(C4)C3C1(Cl)C2(Cl)Cl (centres undefined) , the value recorded as its normalized growth is 0.955 (inactive)

GET /value?item= ClC1=C(Cl)C2(Cl)C3C(Cl)C=CC3C1(Cl)C2(Cl)Cl (centres undefined) &field=normalized growth returns 0.913 (inactive)

For CN1CCCN=C1COC(=O)C(O)(c1ccccc1)C1CCCCC1 (centres undefined) the compound record lists normalized growth as 0.993 (inactive)

Short answer for CCN(CC)CCNC(=O)c1cc(Br)c(N)cc1OC : normalized growth was 0.967 (inactive)

Recorded normalized growth (compound CCOC(=O)[C@H](CCc1ccccc1)N[C@H]1CCc2ccccc2N(CC(=O)O)C1=O ): 0.961 (inactive)

Summary for this compound, Cc1cccc(C)c1OCC(C)N (centres undefined) : normalized growth is 0.998 (inactive)

// normalized growth lookup, compound = CC(=O)OCC[N+](C)(C)C , result: 1.21 [resistant] (active)

Record CC(C[N+](C)(C)C)OC(N)=O (centres undefined) . Reported normalized growth: 1 (inactive)
